target entity: Phosphatidylinositol 4,5-bisphosphate 3-kinase catalytic subunit alpha isoform (Homo sapiens, UniProt P42336)
Sequence (P42336 whole entry, canonical isoform): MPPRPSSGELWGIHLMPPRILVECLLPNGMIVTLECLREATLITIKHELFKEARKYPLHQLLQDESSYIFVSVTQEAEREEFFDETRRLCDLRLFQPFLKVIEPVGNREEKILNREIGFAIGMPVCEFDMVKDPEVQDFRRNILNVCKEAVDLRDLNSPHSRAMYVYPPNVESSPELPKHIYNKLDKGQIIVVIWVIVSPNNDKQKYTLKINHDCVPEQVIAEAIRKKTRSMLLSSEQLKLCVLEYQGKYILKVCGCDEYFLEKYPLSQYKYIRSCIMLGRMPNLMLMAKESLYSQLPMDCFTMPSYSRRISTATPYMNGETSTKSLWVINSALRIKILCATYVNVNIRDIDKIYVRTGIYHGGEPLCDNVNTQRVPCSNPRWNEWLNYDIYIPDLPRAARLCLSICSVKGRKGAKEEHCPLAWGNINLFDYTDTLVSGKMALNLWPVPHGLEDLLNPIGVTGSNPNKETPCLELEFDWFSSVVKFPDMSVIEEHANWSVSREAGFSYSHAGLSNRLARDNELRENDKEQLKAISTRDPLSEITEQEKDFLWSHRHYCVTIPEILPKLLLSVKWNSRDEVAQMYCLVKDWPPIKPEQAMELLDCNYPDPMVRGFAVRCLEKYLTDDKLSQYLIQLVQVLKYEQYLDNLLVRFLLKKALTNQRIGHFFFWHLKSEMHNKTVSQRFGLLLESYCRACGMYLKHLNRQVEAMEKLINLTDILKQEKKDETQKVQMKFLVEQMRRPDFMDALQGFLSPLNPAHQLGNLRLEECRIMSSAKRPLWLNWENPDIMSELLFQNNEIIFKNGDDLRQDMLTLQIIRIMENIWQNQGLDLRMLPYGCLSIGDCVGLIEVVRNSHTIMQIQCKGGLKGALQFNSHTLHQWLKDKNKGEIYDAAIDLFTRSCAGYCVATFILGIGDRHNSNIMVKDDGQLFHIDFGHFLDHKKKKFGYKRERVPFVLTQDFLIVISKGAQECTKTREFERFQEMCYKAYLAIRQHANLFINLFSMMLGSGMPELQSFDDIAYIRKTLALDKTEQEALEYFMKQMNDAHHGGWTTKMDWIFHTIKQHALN
assay remarks: Inhibition of PI3Kalpha (unknown origin) using PIP2 as substrate pretreated for 15 mins followed by substrate addition measured after 1 hr
The following compounds are shown together with reported IC50 values.

{"compound structure string": "O=C(Nc1cc(-c2ccc(O)cc2)cc2[nH]ncc12)c1ccccn1", "reading qualifier": ">", "IC50 / µM": 25.1}
{"compound structure string": "O=C(Nc1cc(-c2cccc3[nH]ccc23)cc2[nH]ncc12)C1CC1", "reading qualifier": ">", "IC50 / µM": 25.1}
{"compound structure string": "O=C(Nc1cc(-c2cccc(O)c2)cc2[nH]ncc12)C1CC1", "reading qualifier": "=", "IC50 / µM": 20}
{"compound structure string": "O=C(Nc1cc(-c2cccc(O)c2)cc2[nH]ncc12)c1ccccn1", "reading qualifier": "=", "IC50 / µM": 25.1}
{"compound structure string": "O=C(Nc1cc(-c2ccc(O)cc2)cc2[nH]ncc12)C1CC1", "reading qualifier": "=", "IC50 / µM": 25.1}
{"compound structure string": "O=C(Nc1cc(-c2ccc3cc[nH]c3c2)cc2[nH]ncc12)c1ccccn1", "reading qualifier": "=", "IC50 / µM": 25.1}
{"compound structure string": "O=C(Nc1n[nH]c2cc(-c3ccc(O)cc3)ccc12)C1CC1", "reading qualifier": ">", "IC50 / µM": 25.1}
{"compound structure string": "O=C(Nc1cc(-c2ccccc2)cc2[nH]ncc12)C1CC1", "reading qualifier": "=", "IC50 / µM": 25.1}

* * *

target entity: Phosphatidylinositol 4,5-bisphosphate 3-kinase catalytic subunit beta isoform (Homo sapiens, UniProt P42338)
Sequence (P42338 whole entry, canonical isoform): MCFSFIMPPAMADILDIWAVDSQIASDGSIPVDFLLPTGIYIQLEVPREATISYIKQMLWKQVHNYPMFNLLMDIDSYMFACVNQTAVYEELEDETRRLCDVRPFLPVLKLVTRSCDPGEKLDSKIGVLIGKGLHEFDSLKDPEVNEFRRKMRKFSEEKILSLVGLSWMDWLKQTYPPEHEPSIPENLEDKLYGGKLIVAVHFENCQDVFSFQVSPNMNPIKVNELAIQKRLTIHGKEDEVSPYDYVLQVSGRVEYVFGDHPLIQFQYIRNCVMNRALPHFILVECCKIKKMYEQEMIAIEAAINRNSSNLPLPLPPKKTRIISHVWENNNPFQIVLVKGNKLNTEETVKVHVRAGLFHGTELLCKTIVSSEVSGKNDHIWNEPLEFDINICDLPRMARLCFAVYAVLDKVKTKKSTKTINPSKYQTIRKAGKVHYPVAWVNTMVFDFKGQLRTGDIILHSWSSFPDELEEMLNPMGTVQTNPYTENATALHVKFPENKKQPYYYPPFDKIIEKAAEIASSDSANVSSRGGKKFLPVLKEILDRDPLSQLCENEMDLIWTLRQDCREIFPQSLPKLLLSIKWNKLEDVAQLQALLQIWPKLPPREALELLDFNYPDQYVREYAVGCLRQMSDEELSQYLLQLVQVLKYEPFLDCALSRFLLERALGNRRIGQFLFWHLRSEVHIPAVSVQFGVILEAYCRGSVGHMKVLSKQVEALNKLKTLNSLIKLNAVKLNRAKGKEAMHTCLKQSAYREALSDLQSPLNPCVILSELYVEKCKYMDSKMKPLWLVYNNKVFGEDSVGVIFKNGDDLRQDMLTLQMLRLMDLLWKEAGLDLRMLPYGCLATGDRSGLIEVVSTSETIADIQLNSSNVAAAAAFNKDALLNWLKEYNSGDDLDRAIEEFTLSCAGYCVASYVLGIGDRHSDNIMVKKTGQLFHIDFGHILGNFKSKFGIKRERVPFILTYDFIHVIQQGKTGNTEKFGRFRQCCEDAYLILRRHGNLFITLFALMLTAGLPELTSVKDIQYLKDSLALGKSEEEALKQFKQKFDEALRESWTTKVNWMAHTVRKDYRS
assay remarks: Inhibition of PI3Kbeta (unknown origin) using PIP2 as substrate pretreated for 15 mins followed by substrate addition measured after 1 hr
experimental readout: IC50 (µM)

{"compound structure string": "O=C(Nc1cc(-c2cccc(O)c2)cc2[nH]ncc12)C1CC1", "experimental readout": "IC50", "reading qualifier": "=", "reading": 20}
{"compound structure string": "O=C(Nc1cc(-c2cccc(O)c2)cc2[nH]ncc12)c1ccccn1", "experimental readout": "IC50", "reading qualifier": "=", "reading": 31.6}
{"compound structure string": "O=C(Nc1cc(-c2ccc(O)cc2)cc2[nH]ncc12)c1ccccn1", "experimental readout": "IC50", "reading qualifier": ">", "reading": 25.1}
{"compound structure string": "O=C(Nc1cc(-c2ccc(O)cc2)cc2[nH]ncc12)C1CC1", "experimental readout": "IC50", "reading qualifier": "=", "reading": 25.1}
{"compound structure string": "O=C(Nc1cc(-c2cccc3[nH]ccc23)cc2[nH]ncc12)C1CC1", "experimental readout": "IC50", "reading qualifier": "=", "reading": 25.1}
{"compound structure string": "O=C(Nc1n[nH]c2cc(-c3ccc(O)cc3)ccc12)C1CC1", "experimental readout": "IC50", "reading qualifier": ">", "reading": 25.1}
{"compound structure string": "O=C(Nc1cc(-c2ccc3cc[nH]c3c2)cc2[nH]ncc12)c1ccccn1", "experimental readout": "IC50", "reading qualifier": "=", "reading": 12.6}
{"compound structure string": "O=C(Nc1cc(-c2ccccc2)cc2[nH]ncc12)C1CC1", "experimental readout": "IC50", "reading qualifier": ">", "reading": 25.1}
